# Run description: xn = mol fraction of the nth substance listed
# Protocol conditions: 288.15 K; 100.5 kPa; Liquid; x1 = 0.4
Metric name: mass density (kg/m3)
Lab book: enter the figure in kg/m3, no units written.

Any idea what its mass density is? The molecule is CCOC(=O)CC(C)=O [ethyl 3-oxobutanoate] + CCO
936.31

Any idea what its mass density is? The molecule is CC(=O)OCc1ccccc1 [benzyl ethanoate] + CCO
961.41

Any idea what its mass density is? The molecule is CCOC(=O)CC(C)C [ethyl 3-methylbutanoate] + CCO
841.07

Any idea what its mass density is? The molecule is CCC(=O)OCc1ccccc1 [benzyl propanoate] + CCO
952.87

Any idea what its mass density is? The molecule is COC(=O)c1ccccc1 [methyl benzoate] + CCO
973.15

Any idea what its mass density is? The molecule is CCOC(=O)c1ccccc1O [ethyl 2-hydroxybenzoate] + CCO
1010.45

* * *

# Run description: xn = mol fraction of the nth substance listed
# Protocol conditions: 288.15 K; 100.5 kPa; Liquid; x1 = 0.1
Metric name: mass density (kg/m3)
Lab book: enter the figure in kg/m3, no units written.

Any idea what its mass density is? The compound is CCOC(=O)CC(C)=O [ethyl 3-oxobutanoate] + CCO
841

Any idea what its mass density is? The compound is CCC(=O)OCc1ccccc1 [benzyl propanoate] + CCO
852.43

Any idea what its mass density is? The compound is CCOC(=O)c1ccccc1O [ethyl 2-hydroxybenzoate] + CCO
871.02

Any idea what its mass density is? The compound is CCOC(=O)CC(C)C [ethyl 3-methylbutanoate] + CCO
810.36

Any idea what its mass density is? The compound is CC(=O)OCc1ccccc1 [benzyl ethanoate] + CCO
852.86

Any idea what its mass density is? The compound is COC(=O)c1ccccc1 [methyl benzoate] + CCO
853.88

* * *

# Run description: xn = mol fraction of the nth substance listed
# Protocol conditions: 318.15 K; 100.5 kPa; Liquid; Capillary tube (Ostwald / Ubbelohde) method; x1 = 0.3
Could you please report measured viscosity for the items listed next?
Lab book: enter the figure in mPa·s, no units written.

Any idea what its viscosity is? The compound is CCOC(=O)CC(C)C [ethyl 3-methylbutanoate] + CCO
0.587

Any idea what its viscosity is? The compound is CCOC(=O)CC(C)=O [ethyl 3-oxobutanoate] + CCO
0.735

Any idea what its viscosity is? The compound is CCC(=O)OCc1ccccc1 [benzyl propanoate] + CCO
0.913

Any idea what its viscosity is? The compound is COC(=O)c1ccccc1 [methyl benzoate] + CCO
0.834

Any idea what its viscosity is? The compound is CC(=O)OCc1ccccc1 [benzyl ethanoate] + CCO
0.875

* * *

Could you please report measured mass density for the items listed next?
# Run description: xn = mol fraction of the nth substance listed
# Protocol conditions: 308.15 K; 100.5 kPa; Liquid; x1 = 0.45
Lab book: enter the figure in kg/m3, no units written.

Any idea what its mass density is? The compound is CCC(=O)OCc1ccccc1 [benzyl propanoate] + CCO
944.97

Any idea what its mass density is? The compound is CC(=O)OCc1ccccc1 [benzyl ethanoate] + CCO
954.76

Any idea what its mass density is? The compound is CCOC(=O)CC(C)C [ethyl 3-methylbutanoate] + CCO
825.05

Any idea what its mass density is? The compound is CCOC(=O)c1ccccc1O [ethyl 2-hydroxybenzoate] + CCO
1006.61

Any idea what its mass density is? The compound is COC(=O)c1ccccc1 [methyl benzoate] + CCO
968.36

Any idea what its mass density is? The compound is CCOC(=O)CC(C)=O [ethyl 3-oxobutanoate] + CCO
927.73

Where do the numbers come from? From the NIST ThermoML archive (doi:10.1021/je050402s).
